- Protocol: RP, Thermo Scientific Acclaim RSLC 120 C18, 100 × 2.1 mm, 2.2 µm, 30 °C, 0.2 mL/min, estimated dead time 1.1 min; A: 90% water + 10% methanol + 0.01% formic acid + 5 mM ammonium formate, pH 3.61; B: methanol + 0.01% formic acid + 5 mM ammonium formate, pH 3.61; gradient (min/%B) 0/1 1/1 2/39 13/99.9 15/99.9 15.1/1 20.1/1
- Experimental Context: stereoisomer not certain
label 1 means recorded LC retention time is 6 min or above; label 0 means it is below 6 min.

> print(dat)
                                   molecule  assigned.category
1  O=C(C1CCCCC1)N1CC(=O)N2CCc3ccccc3C2C1 (stereo unspecified)            label 1
2                   O=C(Nc1ccccc1)c1ccccc1I            label 1
3  CC(C)(C)C(O)C(Oc1ccc(Cl)cc1)n1cncn1 (stereo unspecified)            label 1

In plain terms: is recorded LC retention time at least 6 min for CNC(C)Cc1ccc(O)c(OC)c1 (stereo unspecified) ? label 0

Can you check `O=S(=O)(O)NC1CCCCC1` next? label 1

Also COc1cccc(C2(O)CCCCC2C[N+](C)(C)[O-])c1 (stereo unspecified) [Tramadol-N-oxide] ? label 0

Then this molecule: CC12C=CC(=O)C=C1CCC1C2CCC2(C)C(O)CCC12 (stereo unspecified) label 1

Also CCCN1CCCCC1C(=O)Nc1c(C)cccc1C (stereo unspecified) , if possible. label 0

Next record, please: `CC(C)N(C(=O)CS(=O)(=O)O)c1ccc(F)cc1` label 0

Lookup `CCCCCn1nc(C(=O)Nc2cccc3ccccc23)c2ccccc21` label 1

Query `CC(=O)Oc1ccccc1C(=O)O` next label 0

Another: `O=C(O)c1cn(C2CC2)c2cc(N3CCNCC3)c(F)cc2c1=O` label 0

Queued: `CC(C)Oc1cc(-n2nc(C(C)(C)C)oc2=O)c(Cl)cc1Cl` label 1
